Target or system: Cytochrome P450 3A4 (Homo sapiens)
Test protocol: qHTS Assay for Inhibitors and Substrates of Cytochrome P450 3A4 (AID 884); further: nearly all actives have a fitted effect of over 50% in size
Cond: recombinant CYP3A4, Luciferin-PPXE luminescence; series mostly up to 57.1 µM
Results filed as inconclusive are left out. Calls of active or inactive are those of the source. The call rests on the fitted dose curve; in most records, active means well fitted inhibition curve with a large enough effect; inconclusive means small, poorly fitted or top-dose-only effect; inactive means no such curve, though single readings can be large or run the other way.
Returns: one label drawn from active, inactive

Worked cases, answers included:
{"Compound": "IC(I)I", "Class label": "inactive"}
{"Compound": "O=S(=O)(O)O", "Class label": "inactive"}
{"Compound": "CCCCCCCC(=O)O", "Class label": "inactive"}

Entry CCCCCCCC/C=C\CCCCCCCC(=O)O : call = ? inactive

// return assay outcome for O=C(O)CN(CCN(CC(=O)O)CC(=O)O)CC(=O)O inactive

Give the logged outcome of this assay for the following compound: CC(Cc1ccc(O)c(O)c1)C(C)Cc1ccc(O)c(O)c1 (centres undefined) active

Test call, this compound: Cc1c(C)c2c(c(C)c1O)CC[C@@](C)(CCC[C@H](C)CCC[C@H](C)CCCC(C)C)O2 inactive

Recorded test outcome, item CC1=C(/C=C/C(C)=C/C=C/C(C)=C/C=C/C=C(C)/C=C/C=C(C)/C=C/C2=C(C)C(=O)CCC2(C)C)C(C)(C)CCC1=O inactive

Entry OCc1ccccc1O[C@@H]1O[C@H](CO)[C@@H](O)[C@H](O)[C@H]1O : call = ? inactive

* * *

Test system: KB-3-1
Test protocol: Cytotoxic Profiling of Annotated Libraries Using Quantitative High-Throughput Screening (AID 1296008); further: on the % scale 0 is the no-effect control and ±100 the full control effect; nearly all actives have a fitted effect of over 60% in size
Cond: Five cell lines viability, CellTiter-Glo ATP luminescence, 48-72 h; stronger effect = lower value
Inconclusive results are not listed.
Measure name: max response (%)
Expressed in %, but write only the number.

Recorded results for 4 compounds are shown here.
{"Compound": "CC(C)Nc1cc(-c2c[nH]c(C(=O)N[C@H](CO)c3cccc(Cl)c3)c2)c(Cl)cn1", "Uom": "%", "max response": -26.9}
{"Compound": "COc1c(C(CC(C)C)OC(C)=O)ccc(Oc2c(O)cc(C)cc2/C=C/C(C)=O)c1C(=O)O (stereo not given)", "Uom": "%", "max response": 3.96}
{"Compound": "CO[C@H]1C=C2C(CC[C@H](O[C@@H]3O[C@H](CO)[C@@H](O)[C@@H](O)[C@H]3O)C2(C)C)[C@]2(C)CC[C@]3(C)C([C@H](C)C(O)C(C=C(C)C)O[C@@H]4O[C@H](CO)[C@@H](O)[C@@H](O)[C@H]4O)CC[C@@]3(C)C12 (stereo not given in full)", "Uom": "%", "max response": 6.33}
{"Compound": "C[C@@]12C[C@]3(O)O[C@H](O1)[C@]1(COC(=O)c4ccccc4)[C@H]3C[C@@]12O[C@@H]1O[C@H](COC(=O)c2ccccc2)[C@@H](O)[C@H](O)[C@H]1O", "Uom": "%", "max response": 1.05}

Readout max response for CC(NCc1ccc(OCc2cccc(F)c2)cc1)C(N)=O (stereo not given) , test system KB-3-1, was 9.7

max response of CC(O)C(O)/C=C/C=C/C(=O)O[C@@H]1C=C2COC(=O)[C@]2(O)[C@@]2(C)CCCC(C)(C)C12 (stereo not given in full) , assay on KB-3-1, is 8.55

Kindly note: KB-3-1, Cc1cccc(-c2[nH]c(CNc3ccccc3F)nc2-c2ccc3ncnn3c2)n1 , max response value reported: 6.62

Entry COc1cc(C2OCC3C(c4ccc(OC5OC(CO)C(O)C(O)C5O)c(OC)c4)OCC23)ccc1O (stereo not given) ; assay system KB-3-1; max response recorded at -0.0986

Bench note, KB-3-1: CC(=O)c1c(C)cc(O[C@@H]2O[C@H](CO)[C@@H](O)[C@H](O)[C@H]2O)cc1O , max response reads -6.9

// assay KB-3-1, entry CC(C)(C)NCc1cc(Nc2ccnc3cc(Cl)ccc23)c2c(c1O)CCCC2 , max response value = 7.98

* * *

Test protocol: Drug repurposing screens with cells derived from glioblastoma tumor samples (AID 1345199); further: on the % scale 0 is the no-effect control and ±100 the full control effect; nearly all actives have a fitted effect of over 40% in size
Cond: GBM patient neurospheres viability, ATP luminescence, 48 h; at 21.3 µM (top of the series); tumour line A
Records with an inconclusive call do not appear.
The entries below are paired with their reported activity, negative = cell killing.
Provide only the numeric value, understood in %.

Looking up CO[C@H]1C[C@H](O[C@H]2[C@H](C)[C@@H](O[C@@H]3O[C@H](C)C[C@H](N(C)C)[C@H]3OC(C)=O)[C@@H](C)C[C@]3(CO3)C(=O)[C@H](C)[C@@H](OC(C)=O)[C@@H](C)[C@@H](C)OC(=O)[C@@H]2C)O[C@@H](C)[C@@H]1OC(C)=O , I found its activity, negative = cell killing recorded as -20.4

Measured activity, negative = cell killing, CCC(=O)O[C@@H]1CC(=O)O[C@H](C)C/C=C/C=C/[C@H](O)[C@H](C)C[C@H](CC=O)[C@H](O[C@@H]2O[C@H](C)[C@@H](O[C@H]3C[C@@](C)(O)[C@@H](OC(=O)CC)[C@H](C)O3)[C@H](N(C)C)[C@H]2O)[C@H]1OC : -24.3

Query CC1(C)S[C@@H]2[C@H](NC(=O)[C@@H](NC(=O)N3CCNC3=O)c3ccccc3)C(=O)N2[C@H]1C(=O)O yields activity, negative = cell killing of -17.7

Value of activity, negative = cell killing reported for the compound Cc1cc(C(=O)NNCc2ccccc2)no1 is -21.8

// field: activity, negative = cell killing; key: C[C@H](CCC(=O)O)[C@H]1CC[C@H]2[C@@H]3[C@H](O)C[C@@H]4C[C@H](O)CC[C@]4(C)[C@H]3CC[C@]12C ; value = -15.4

Measured activity, negative = cell killing of CC(C)(C)C(=O)OCOC(=O)[C@@H]1N2C(=O)[C@@H](N=CN3CCCCCC3)[C@H]2SC1(C)C : -13.2

* * *

Test protocol: qHTS drug screen for cell cycle checkpoint inhibitors in PARPi-resistant BRCA-mutant ovarian cancer cell lines. (AID 1963452)
Cond: PEO1/OlaR viability, CellTiter-Glo luminescence, 96 h; measured here: PEO1 parental Z-AUC; stronger effect = lower value
Source text: Women's Malignancies Branch, Center for Cancer Research (CCR), National Cancer Institute (NCI), National Institutes of Health (NIH), Bethesda, MD Poly (ADP-ribose) polymerase inhibitors (PARPis) have changed the treatment paradigm in breast cancer gene (BRCA) - mutant high-grade serous ovarian carcinoma (HGSC). […] 6; Detection; Luminescence, PHERAstar (BMG Labtech) plate reader. […] 6. Luminescence readings were taken using PHERAstar (BMG Labtech). […]
Attribute: Z-AUC

Answered examples (3):
{"Molecule": "O=C(c1ccc(NS(=O)(=O)c2cccc3cccnc23)cc1)N1CCN(CC2CC2)CC1", "Measure name": "Z-AUC", "Result": -0.299}
{"Molecule": "CN(C)c1cccc(-c2c3c(=O)n(-c4ccccc4Cl)[nH]c3cc(=O)n2C)c1", "Measure name": "Z-AUC", "Result": -0.313}
{"Molecule": "OC[C@H]1O[C@@H](Oc2cc(O)cc(/C=C/c3ccc(O)cc3)c2)[C@H](O)[C@@H](O)[C@@H]1O", "Measure name": "Z-AUC", "Result": 1.63}

Sample NC1CCC(N[C@@H]2C[C@H]2c2ccccc2)CC1 (some centres undefined) ; Z-AUC observed: -0.571

// sample CC(C)Nc1cc(-c2c[nH]c(C(=O)N[C@H](CO)c3cccc(Cl)c3)c2)c(Cl)cn1 , its Z-AUC was -1.89

// sample Cc1c(-c2ccnn2C)cc(C(=O)NCc2ccc(S(C)(=O)=O)cn2)c(=O)n1-c1cccc(C(F)(F)F)c1 , its Z-AUC was -0.353

The molecule identified as Cc1cccc(-c2[nH]c(CNc3ccccc3F)nc2-c2ccc3ncnn3c2)n1 registered its Z-AUC at 0.223

Entry CNc1nc(Nc2cnn([C@H]3CCN(C4COC4)C[C@@H]3F)c2Cl)ncc1C(F)(F)F ; Z-AUC = -0.0727

Looking up C=C1CC[C@@H]2[C@](C)(CO)[C@H](O)CC[C@@]2(C)[C@@H]1C/C=C1/C(=O)OC[C@H]1O , I found its Z-AUC recorded as -0.159

* * *

System: CP297
Test protocol: qHTS profiling for inhibitors of Plasmodium falciparum proliferation (AID 504749); further: nearly all actives have a fitted effect of over 60% in size
Cond: P. falciparum in erythrocytes, SYBR Green DNA, 72 h; series mostly up to 28.7 µM
Results filed as inconclusive are left out. Activity calls are given as the source filed them. Calls follow the shape of the dose curve; as a rule, active = well fitted inhibition curve with a large enough effect; inconclusive = small, poorly fitted or top-dose-only effect; inactive = flat fitted curve, though single readings scatter.
Pick one: active, inactive

Sample answers from the record:
{"Smiles text": "CO[C@H]1C[C@@H]2CC[C@@H](C)[C@@](O)(O2)C(=O)C(=O)N2CCCC[C@H]2C(=O)O[C@H]([C@H](C)C[C@@H]2CC[C@@H](OCCO)[C@H](OC)C2)CC(=O)[C@H](C)/C=C(\\C)[C@@H](O)[C@@H](OC)C(=O)[C@H](C)C[C@H](C)/C=C/C=C/C=C/1C", "Class label": "active"}
{"Smiles text": "O=C1C(=O)c2ncccc2-c2cccnc21", "Class label": "active"}
{"Smiles text": "CC(C)N=c1cc2n(-c3ccc(Cl)cc3)c3ccccc3nc-2cc1Nc1ccc(Cl)cc1", "Class label": "inactive"}
{"Smiles text": "CCN(CC)CCOc1ccc(-c2nc3cc(Cl)ccc3s2)cc1", "Class label": "inactive"}
{"Smiles text": "O=C(O)c1cc(O)c2c(c1)[O][Bi][O]2", "Class label": "inactive"}
{"Smiles text": "CCCCCCCC/C=C\\CCCCCCCC(=O)O", "Class label": "inactive"}
{"Smiles text": "CC1=C(/C=C/C(C)=C/C=C/C(C)=C/CO)C(C)(C)CCC1", "Class label": "inactive"}
{"Smiles text": "C[C@]12CCC(=O)C=C1CC[C@@H]1[C@@H]2[C@@H](O)C[C@@]2(C)[C@H]1CC[C@]2(O)C(=O)COP(=O)(O)O", "Class label": "inactive"}
{"Smiles text": "CC(C)=O", "Class label": "inactive"}

Next up:
Assay result, entry CCCCCCOc1ccc(C(=N)N(CCCC)CCCC)c2ccccc12 — outcome? active
